# target.or.system: UniProt P28907
# Sequence (P28907 45-300): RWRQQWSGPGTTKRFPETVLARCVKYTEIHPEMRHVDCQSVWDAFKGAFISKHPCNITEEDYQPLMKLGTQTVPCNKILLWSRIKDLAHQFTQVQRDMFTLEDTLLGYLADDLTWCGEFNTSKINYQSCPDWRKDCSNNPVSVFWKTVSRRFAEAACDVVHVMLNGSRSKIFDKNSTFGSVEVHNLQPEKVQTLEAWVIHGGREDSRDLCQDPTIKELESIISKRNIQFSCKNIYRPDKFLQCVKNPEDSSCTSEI
# assay: CD38 activity and inhibition measurements (time-dependent inactivation, NGD+ to cGDPR, absorbance at 295 nm)
# Format: biochemical
# assay.setup: kon from activity decay; read-out: Kieff = koff/kon (Activity, koff)
# Method: […] Aliquots of the reaction were assayed by placing 5 μl of the reaction mixture into 1 ml of 50 mM HEPES (pH 7.5) containing 100 μM NGD^+, at 30, 60, 90, 120, 180, or 300 sec. The conversion of NGD^+ to cGDPR was monitored by determining absorbance at 295 nm. […] Activity was determined as a function of time, and fitted to the equation A(t)=[…]^-kt, where A0 is activity at time zero (control), t is time in seconds, and k is the observed pseudo-first-order rate constant. […]
test.readout: Ki

>  <molecule>
NC(=O)c1ccc[n+]([C@H]2C[C@H](O)[C@@H](CO)O2)c1 [βNdR, β-1′-nicotinamide-2′-deoxyribose]

>  <test.readout>
Ki

>  <value.observed>
5.1 nM

$$$$
